test system: U251 CNS; assay: NCI-60 one-dose screen, 48 h; details: 10 µM unless noted
Compounds without any hit were thinned out: in the full panel of roughly 83,000, 20% have a hit. Activity calls are given as the source filed them. How the source made its calls: active means growth percent below 10; inactive means the rest.
Answer with one of the outcomes active, inactive

In this assay, the call recorded for Cc1cn(C2CC(N=[N+]=[N-])C(COP(=O)(O)OP(=O)(O)OP(=O)(O)O)O2)c(=O)[nH]c1=O (stereo unspecified) was what?
inactive

Hello, I am checking results. What call was entered for `Cc1cc(NC(=O)c2cccc(C(F)(F)F)c2)ccc1-n1ccc2c(NC(=O)c3ccccc3)nccc21` ?
inactive

Which result was noted for this molecule in the test: `ClC1c2ccccc2CCc2ccccc21`
inactive

Returns: the outcome recorded for `O=C(Nc1ccc(Cl)c(Cl)c1)Nc1ccc(Cl)c([N+](=O)[O-])c1` in this assay.
active

I'd appreciate the recorded outcome for `CCOC(=O)NNc1nncc2ccccc12` from this test.
inactive

Could you check what this test reported for Nc1nc2ccc(CNc3ccc(C(=O)NC(CC(=O)O)C(=O)O)cc3)cc2c(=O)[nH]1 (stereo unspecified) ?
inactive

Kindly provide the recorded test outcome for the following molecule: `COc1cc2c(cc1OCCCCC(=O)Nc1ccc(-c3nc4ccccc4s3)cc1)N=C[C@@H]1CCCN1C2=O`
active

In this assay, the call recorded for `Cc1cccc[n+]1CCC[n+]1ccccc1C` was what?
inactive

Tell me the assay call for C[C@@H]1CC2C3C[C@H](F)C4=CC(=O)C=C[C@]4(C)[C@@]3(F)[C@@H](O)C[C@]2(C)[C@@]1(O)C(=O)CO (stereo partly specified) please.
inactive

For this molecule, state the assay outcome: `CC1=C2C(=C[C@@](C)(CO)[C@@H]2OC(=O)N(C)CCN(C)C(=O)OC(C)(C)C)C(=O)[C@](C)(O)C12CC2`
inactive

I would be grateful if you could indicate the recorded call for `S=c1ssnc1-c1ccccn1` .
inactive

Can you look up the reported call for `O=C1/C(=C/c2cccc3cnccc23)Cc2cc(F)ccc21` for me?
inactive

Would you mind telling me which call this test gave `O=C1COc2ccccc2C(=O)N1CCCCNc1ccccc1` ?
inactive

Name the outcome recorded for `O=C(Nc1ccc(-n2ccc3c(NC(=O)c4ccccc4)ncnc32)cc1)Nc1ccc(Cl)c(Cl)c1` in the assay.
active

Dear all, I need the recorded test outcome for Cc1ccc2c(C3C(C#N)=C(N)Oc4cc5ccccc5cc43)cc(=O)oc2c1 (stereo unspecified) , thank you.
inactive

Which outcome was entered for the molecule `Cc1ccc2c(c1)Nc1ccc(C)cc1C2(C)C` in this test?
inactive

Please indicate how the test categorized `COc1cc(/C=C\c2cc(/C=C\c3ccc(O)c(OC)c3)n(C(=O)CNc3ccccc3OC)n2)ccc1O` .
inactive

Assay result, entry `O=C(Nc1ccc(-n2cc(-c3ccncc3)c(-c3ccc(O)c(Cl)c3)n2)cc1)c1ccc(Cl)c(Cl)c1` — outcome?
inactive

What did the test return for `NC(=S)NNC1CCCCC1` ?
inactive

What is the recorded call for this molecule in the test? `O=C1C(Cl)=C(Nc2cccc3cc4ccccc4nc23)C(=O)c2ccccc21`
inactive

Short answer needed: outcome of this test for `Nc1ncnc2c1c(-c1ccc(Oc3ccccc3)cc1)nn2C[C@@H]1SSC[C@H]1O` ?
inactive

###

Would you mind telling me the reported growth of each entry?
system: BT-549 breast; experiment: NCI-60 one-dose screen, 48 h (100 = growth as untreated, 0 = no growth, -100 = all killed); conditions: 10 µM unless noted
This is part of a sample that, as a whole, favours compounds with a hit. Of some 83,000 tested, about 20% had one in any assay. Activity calls are given as the source filed them. How the source made its calls: active means growth percent below 10; inactive means the rest.

Need growth, item COc1cc(CN(c2ccc(Cl)cc2)C2OC(=O)c3ccccc32)cc(OC)c1OC (stereo not given)
44.8% (inactive)

Give its growth value. Item: `CCCOC(=O)c1ccc([N+](=O)[O-])o1`
127% (inactive)

For the compound shown here, `Fc1cccc(F)c1C#Cc1ccc2cccnc2c1` , give the reported growth.
95.6% (inactive)

Which growth is listed for `O=C(Nc1cccc(-n2ccc3c(NC(=O)c4ccccc4)ncnc32)c1)Nc1ccc(Cl)c(C(F)(F)F)c1` ?
45.9% (inactive)

Which growth value belongs to `Cc1cccc(Cc2cnc(NC(=O)CCc3ccc(C)o3)s2)c1` ?
5.79% (active)

# get_value(readout='growth', item= `Cc1cn(-c2nc3c(c(NCc4ccccc4)n2)COCC3)c2cccc(C(N)=O)c12` )
89% [0.5 µM] (inactive)

Please report the recorded growth for `Cc1cccc(CC(=O)c2ccccc2)n1` .
111% (inactive)

Which growth reading was recorded for the compound `CCc1ccc(C2=C/C(=C/c3ccc(Cl)cc3)C(=O)N2CCc2ccc(S(N)(=O)=O)cc2)cc1` ?
38% (inactive)

Which growth value is on record for `CC(=O)Oc1ccc(C(OC(C)=O)OC(C)=O)cc1` ?
94.2% (inactive)

growth lookup needed for `COc1ccccc1NC(=O)COc1ccc(/C=C2/Oc3cc4occc4c(OC)c3C2=O)cc1OC` , thanks.
93% (inactive)

###

tested on: LOX IMVI melanoma; assay: NCI-60 one-dose screen, 48 h (100 = growth as untreated, 0 = no growth, -100 = all killed); settings: 10 µM unless noted
This is part of a sample that, as a whole, favours compounds with a hit. Of some 83,000 tested, about 20% had one in any assay.
parameter: growth (%)
# number only, unit % dropped from output

# query: growth of entry `COc1ccc(/C=C2\CS(=O)(=O)C/C(=C\c3ccc(OC)cc3)C2=O)cc1`
-26.7

Find the recorded growth belonging to `COc1cc(-c2nc3ccccc3s2)ccc1OCc1nc2n(n1)S(=O)(=O)c1ccccc1N2C` and report it.
72.3

I have this compound here, CCC1S/C(=N\N=C(/C)c2cccs2)N(c2ccccc2)C1=O (stereo unspecified) , and I need its recorded growth.
105

So what's the measured growth for this one? `Cc1nc(-c2ccc(Cl)cc2)ccc1NC(=O)Nc1cccc(C(F)(F)F)c1`
92.9

Fill blank: measured growth of the compound `COc1ccc2c(c1)C(=O)/C(=C/c1cccc(OCC(=O)c3ccccc3)c1)O2` is ____.
-5.01

Name the reported growth value associated with the compound `CN1CCN(Cn2nc(-c3cc(F)c(Cl)cc3Cl)n(/N=C/c3ccc(N(C)C)cc3)c2=S)CC1`
79.9

Entry `Cc1c(F)cccc1NC(=O)c1sc2nc3c(cc2c1N)CCCCC3` has what growth?
50.4

Quick check: growth of `COc1cc(-c2nc(N)n(CC(=O)Nc3ccc(/C(C)=N\O)cc3)n2)cc(OC)c1OC` ?
99.6

Given CCC1(C(N)=O)CC2C=CC1CC2 (stereo unspecified) , state its recorded growth.
96.2

Record request: growth value, item CC1OC(n2c3ccccc3c3c4c(c5c6ccccc6[nH]c5c32)C(=O)N(CCN[C@@H]2CCC[C@H]2N)C4=O)CC(O)C1O (stereo partly specified)
0.411

Reported growth for `COc1ccc(CNc2nc3ccccc3c3c(=O)c4ccccc4sc23)cc1OC` : what is it?
82.7

Would you mind telling me what growth value was observed for `COc1ccc(NC(=O)COCCOCCNC[C@@H]2C(=O)O[C@H]3[C@H]2CC/C(COC(=O)OC/C2=C/CC[C@@]4(C)O[C@H]4[C@H]4OC(=O)[C@@H](CN(C)C)[C@@H]4CC2)=C\CC[C@@]2(C)O[C@@H]32)c(O)c1C(N)=O` ?
35.1

What measured growth goes with `O=C(O)c1ccc(-n2cc(/C=N/Nc3ccc(F)cc3)c(-c3cccc(C(F)(F)F)c3)n2)cc1` ?
42.8

Entry under review: CC1=C[S+](c2ccccc2)c2cccc3cc4ccccc4c1c23 (stereo unspecified) . Reported growth?
8.36

State the recorded growth for this entry: `COC1=C(OC)C(=O)C=CC1=O`
100

What does the data say about its growth? Entry: `CC(C)CNCC(=O)Nc1ccc(Cc2ccc(NC(=O)CNCC(C)C)cc2)cc1`
60.4

What measured growth goes with `C=C1C(=O)O[C@H]2[C@H]1CC/C(COC(=O)c1ccc(C#N)cc1)=C\CC[C@@]1(C)O[C@@H]21` ?
-81.4

Bench note: what growth did `Nc1nc(Cl)cc(NCCCCNc2cc(Cl)nc(N)n2)n1` show?
96.9

May I ask what growth has been recorded for `Cc1cccc[n+]1CCC[n+]1ccccc1C` ?
96.9

Can you look up the measured growth of CN1C(=O)C2(NN=C(c3cccc4ccccc34)S2)c2ccccc21 (stereo unspecified) for me?
31.3

Quick one: growth of `O=C(Nc1ccccc1F)Nc1ccccc1Cl` ?
93.3

// lookup growth for `Cc1ccc(-c2cn3cc([N+](=O)[O-])ccc3n2)cc1`
58.3

Recorded growth for `Cc1cccc(NC(=O)CCc2ccc(N3C(N)=NC(N)=NC3(C)C)cc2)c1` , please?
18.7

What value of measured growth is listed for `Cc1cccc(Cc2cnc(NC(=O)CCc3ccc(C)o3)s2)c1` ?
29.9

Which growth value is on record for `Clc1ccc(OCc2nc(-c3ccccc3)n[nH]2)c(Cl)c1` ?
94.6

Given `O=C(Nc1cccc(-n2ccc3c(NC(=O)c4ccccc4)nccc32)c1)c1cc(N2CCOCC2)cc(C(F)(F)F)c1` , state its recorded growth.
9.47

What does the record list as growth for `CC(=O)c1cc2c(N)c(C(=O)Nc3cccc(Cl)c3)sc2nc1C` ?
89.5

May I ask what growth has been recorded for `CCN1CCN(Cc2ccc(NC(=O)Nc3cccc(-n4ccc5c(NC(=O)c6ccccc6)nccc54)c3)cc2C(F)(F)F)CC1` ?
85

# lookup: growth of `Cc1nc(N)nc(SCc2ccccc2)c1Br`
95.7

Query: growth; subject: `O=c1c2ccccc2sc2c(NCCCNCCO)nc3ccccc3c12`
-87.4

What value of measured growth is listed for COc1ccc(C2=NN(C(=O)COc3ccc(Cl)cc3)C(O)(c3cc(F)c(Cl)cc3Cl)C2)cc1 (stereo unspecified) ?
83.8

Data provenance is PubChem BioAssay (NCI).
